# study system: Nociceptin receptor (Homo sapiens, UniProt P41146)
# Sequence (P41146 whole entry): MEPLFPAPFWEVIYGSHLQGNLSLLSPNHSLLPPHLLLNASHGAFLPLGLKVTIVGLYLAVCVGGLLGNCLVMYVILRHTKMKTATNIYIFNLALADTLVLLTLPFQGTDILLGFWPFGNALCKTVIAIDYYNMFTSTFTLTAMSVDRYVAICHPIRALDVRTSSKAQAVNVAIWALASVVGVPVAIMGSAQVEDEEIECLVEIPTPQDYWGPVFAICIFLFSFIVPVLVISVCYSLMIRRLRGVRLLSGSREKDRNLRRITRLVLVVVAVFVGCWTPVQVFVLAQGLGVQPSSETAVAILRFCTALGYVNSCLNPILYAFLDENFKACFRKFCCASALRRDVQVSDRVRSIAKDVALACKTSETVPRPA
# assay method text: Displacement of [125I]Tyr14-NC/OFQ from human ORL1 receptor
pIC50: −log10 of the molar value.
measured endpoint: pIC50

CCC(CC)Sc1nc2cc(Cl)c(N3CCN(CCO)C(C)C3)cc2[nH]1 (racemic)	8.10

[a] CCC(CC)Sc1nc2cc(Cl)c(N3CCN(CCO)C(C)(C)C3)cc2[nH]1
[b] C[C@@H]1CN(CCO)CCN1c1cc2[nH]c(SC(C)(C)C)nc2cc1Cl
[c] CCC(CC)Sc1nc2cc(Cl)c(N3C[C@@H]4C[C@H]3CN4CCO)cc2[nH]1
[d] C[C@H]1CN(CCO)CCN1c1cc2[nH]c(SC(C)(C)C)nc2cc1Cl
[Q] Hey, quick one: sort these by pIC50, largest value first please. To answer, arrange all of the labels according to the requested order.
[A] d, b, c, a
(d: 8.96, b: 8.59, c: 7.74, a: 7.14)
